# Tested on: AsPC-1 pancreatic cancer cells
# test.protocol: Phototoxicity (PDT), MTT assay, AsPC-1
# Assay type: cell-based
# assay.setup: 6.25 μM photosensitizer, 3 h, 50 mW 0.09 J/cm^2 laser 100 sec, 72 h incubation
metric: Cell viability, Phototoxicity against AsPC-1 (%)
The reply should contain only the number, in %.

These recorded examples may help you get a feel for the data.
compound: C=Cc1c(C)c2cc3nc(c(CC(=O)OC)c4[nH]c(cc5nc(cc1[nH]2)C(C)=C5CC)c(C)c4C(=O)NCCCNC(=O)CCCC(=O)Oc1ccc(/C=C/C(=O)CC(=O)/C=C/c2ccc(O)c(OC)c2)cc1OC)C(CCC(=O)OC)C3C (centres unmarked) [Compound 7, Chlorine e6-curcumin Conjugate (7)]
result.unit: %
numeric.result: 43.03
//
compound: C=Cc1c(C)c2cc3nc(c(CC(=O)O)c4[nH]c(cc5nc(cc1[nH]2)C(C)=C5CC)c(C)c4C(=O)O)[C@@H](CCC(=O)O)[C@@H]3C
result.unit: %
numeric.result: 76.65
//
compound: C=Cc1c(C)c2cc3nc(c(CC(=O)OC)c4[nH]c(cc5nc(cc1[nH]2)C(C)=C5CC)c(C)c4C(=O)NCCOCCOCCNC(=O)CCCC(=O)Oc1ccc(/C=C/C(=O)CC(=O)/C=C/c2ccc(O)c(OC)c2)cc1OC)C(CCC(=O)OC)C3C (centres unmarked) [Compound 13, Chlorine e6-curcumin Conjugate (13)]
result.unit: %
numeric.result: 6.61
//
compound: C=Cc1c(C)c2cc3nc(c(CC(=O)OC)c4[nH]c(cc5nc(cc1[nH]2)C(C)=C5CC)c(C)c4C(=O)NCCCOCCOCCOCCCNC(=O)CCCC(=O)Oc1ccc(/C=C/C(=O)CC(=O)/C=C/c2ccc(O)c(OC)c2)cc1OC)[C@@H](CCC(=O)OC)[C@@H]3C [Compound 16, Chlorine e6-curcumin Conjugate (16)]
result.unit: %
numeric.result: 45.79

Okay, now this compound:
Ask: // lookup Cell viability, Phototoxicity against AsPC-1 | system=AsPC-1 pancreatic cancer cells | key= C=Cc1c(C)c2cc3nc(c(CC(=O)OC)c4[nH]c(cc5nc(cc1[nH]2)C(C)=C5CC)c(C)c4C(=O)NCCCCCCNC(=O)CCCC(=O)Oc1ccc(/C=C/C(=O)CC(=O)/C=C/c2ccc(O)c(OC)c2)cc1OC)C(CCC(=O)OC)C3C (centres unmarked) [Compound 10, Chlorine e6-curcumin Conjugate (10)]
Reply: 75.12
